# IC50 per record follows
Tested on: SRS-A release
Assay: Inhibitory effect on SRS-A release (chopped lung fragments of sensitized guinea pigs upon antigen challenge, bioassayed on isolated guinea pig ileum)
Assay type: cell-based
Conditions: Cavia porcellus; concentration of test compound required to produce a 50% inhibition of SRS-A release; preincubated with lung fragments prior to antigen challenge
# number only, unit µg/mL dropped from output

1) CCOC(=O)Oc1c(C(C)C)nn2cc(CC)ccc12 :: 1.5
2) CC(C)C(=O)Oc1c(C(C)C)nn2ccccc12 :: 0.88
3) CCc1nn2ccccc2c1OC(C)=O :: 1
4) CCCc1nn2ccccc2c1OC(C)=O :: 1.7
5) CC(C)c1nn2ccccc2c1O :: 1.4
6) CC(C)CC(=O)Oc1c(CC(C)C)nn2ccccc12 :: 1.9
7) Cc1nn2ccccc2c1OC(=O)C(C)C :: 1.7
8) CCc1ccc2c(O)c(C(C)C)nn2c1 :: 3.5

Let's switch to this compound now.
Recorded IC50 of CC(=O)Oc1c(-c2ccc(F)cc2)nn2ccccc12 , please. 2.4

###

Test system: SRS-A release
Assay: Inhibitory effect on SRS-A release (chopped lung fragments of sensitized guinea pigs upon antigen challenge, bioassayed on isolated guinea pig ileum)
Assay type: cell-based
Settings: Cavia porcellus; concentration of test compound required to produce a 50% inhibition of SRS-A release; preincubated with lung fragments prior to antigen challenge
READOUT_KIND: IC50 (µg/mL)
# number only, unit µg/mL dropped from output

Previously resolved entries follow.
1. Oc1c(-c2ccc(F)cc2)nn2ccccc12 :: 2.4
2. Cc1cccc2c(OC(=O)C(C)C)c(C(C)C)nn12 :: 0.53
3. Cc1cccc2c(O)c(C(C)C)nn12 :: 0.63
4. CCc1ccc2c(O)cnn2c1 [compound 1, 6-Ethyl-3-hydroxypyrazolo[1,5-a]pyridine] :: 0.55
5. CCc1ccc2c(OC(=O)C(C)C)c(C(C)C)nn2c1 :: 1.2
6. CCC(=O)Oc1c(C(C)C)nn2ccccc12 :: 0.52
7. O=C1CCN(c2ccccc2)N1 [phenidone, 1phenyl-3-pyrazolidone, reference compound] :: 6.3
8. CC(C)Cc1nn2ccccc2c1O :: 1.8

Recorded IC50 of CC(=O)Oc1c(C(C)C)nn2ccccc12 , please. 0.7

// repeat for CCC(=O)Oc1cnn2cc(CC)ccc12 and report 1

###

# inhibition at 0.1 µM per record follows
Target: 5-Lipoxygenase (Cavia porcellus, UniProt A0A286X958)
Construct: using guinea pig peritoneal neutrophils stimulated with calcium ionophore A23187; endogenous in cells; host or cells: guinea pig peritoneal neutrophils
Sequence (A0A286X958 1-674): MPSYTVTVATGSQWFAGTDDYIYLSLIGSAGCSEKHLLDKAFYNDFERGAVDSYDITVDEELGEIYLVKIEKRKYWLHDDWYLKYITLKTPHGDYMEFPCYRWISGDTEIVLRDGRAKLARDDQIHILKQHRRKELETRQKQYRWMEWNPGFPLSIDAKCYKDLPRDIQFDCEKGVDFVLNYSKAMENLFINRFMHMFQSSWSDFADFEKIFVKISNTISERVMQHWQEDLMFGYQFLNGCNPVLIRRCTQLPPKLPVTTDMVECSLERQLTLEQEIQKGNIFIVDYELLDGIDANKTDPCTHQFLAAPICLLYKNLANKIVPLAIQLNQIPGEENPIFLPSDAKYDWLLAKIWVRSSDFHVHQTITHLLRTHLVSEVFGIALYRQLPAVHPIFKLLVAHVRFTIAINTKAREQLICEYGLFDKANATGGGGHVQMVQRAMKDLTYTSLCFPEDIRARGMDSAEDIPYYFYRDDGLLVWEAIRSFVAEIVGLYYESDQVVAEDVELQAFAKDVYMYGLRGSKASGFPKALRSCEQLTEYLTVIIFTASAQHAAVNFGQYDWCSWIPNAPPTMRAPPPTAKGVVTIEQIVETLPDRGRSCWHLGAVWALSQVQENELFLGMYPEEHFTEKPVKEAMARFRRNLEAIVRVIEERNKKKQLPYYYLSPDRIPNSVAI
Experiment: Effect on metabolism of exogenous arachidonic acid in A23187-stimulated guinea pig peritoneal neutrophils: 5-lipoxygenase product
Assay type: cell-based
Settings: 0.1 μM; read-out: Inhibition percent, 5-Lipoxygenase
# number only, unit % dropped from output

Previously resolved entries follow.
1. CCc1nn2ccccc2c1OC(C)=O :: 35.1
2. CCC(=O)Oc1cnn2cc(CC)ccc12 :: 62
3. CCC(=O)Oc1c(C(C)C)nn2ccccc12 :: 53.2
4. CCCc1nn2ccccc2c1OC(C)=O :: 20.6

Query for 5-Lipoxygenase (Cavia porcellus, UniProt A0A286X958): what inhibition at 0.1 µM does the record show for CC(C)CC(=O)Oc1c(CC(C)C)nn2ccccc12 ? 16.9

// repeat for CC(C)Cc1nn2ccccc2c1O and report 20.3

###

Target: 5-Lipoxygenase (Cavia porcellus)
Construct: using guinea pig peritoneal neutrophils stimulated with calcium ionophore A23187; endogenous in cells; host or cells: guinea pig peritoneal neutrophils
Assay: Effect on metabolism of exogenous arachidonic acid in A23187-stimulated guinea pig peritoneal neutrophils: 5-lipoxygenase product
Assay type: cell-based
Settings: 0.3 μM; read-out: Inhibition percent, 5-Lipoxygenase
# inhibition at 0.3 µM per record follows
# number only, unit % dropped from output

Previously resolved entries follow.
1. CCCc1nn2ccccc2c1OC(C)=O :: 80.2
2. CC(C)CC(=O)Oc1c(CC(C)C)nn2ccccc12 :: 82.1
3. CCC(=O)Oc1cnn2cc(CC)ccc12 :: 84
4. CCc1nn2ccccc2c1OC(C)=O :: 61.7

Let's switch to this compound now.
Recorded inhibition at 0.3 µM of O=C1CCN(c2ccccc2)N1 [phenidone, 1phenyl-3-pyrazolidone, reference compound] , please. 22
